These entries and their values trace back to patent US8614201B2.

# experimental-target: UniProtKB O75762
# assay-explanation: Alternative TRPA1 Ca2+ fluorometry assay (hTRPA1/TREx-HEK293 cells, Fluo-4, FDSS 6000)
# Assay type: cell-based
# Design: expressed in transfected cells
# conditions: Fluo-4-AM, agonist 6,11-dihydro-5H-dibenzo[b,e]azepine-10-carboxylic acid methyl ester 25 nM, procedure used for Examples 184, 190 to 192, 194 to 316
Each entry below lists one item and its recorded IC50 value.

compound | experimental-target | observed-result
O=C(NCc1cc(-c2cccc(OC(F)(F)F)c2)nc(N2CCN(c3ccccc3F)CC2)n1)[C@@H]1CCCN1S(=O)(=O)c1ccc(F)cc1 [Example 234] | UniProtKB O75762 | > 10 µM
O=C(NCc1cc(-c2ccc(C(F)(F)F)cc2)nc(N2CCN(c3ccccc3F)CC2)n1)[C@@H]1CCCN1S(=O)(=O)c1ccccc1 [Example 272] | UniProtKB O75762 | ~0.436 µM

Attention now shifts to the item below.
# IC50 lookup, item O=C(NCc1cc(-c2ccc(C(F)(F)F)cc2)nc(NCCc2ccc(Cl)cc2Cl)n1)[C@@H]1CCCN1S(=O)(=O)c1ccc(F)cc1 [Example 195] 0.617 µM

====

# experimental-target: Human TRPA1 (Homo sapiens, UniProt O75762)
# Sequence (O75762 whole entry): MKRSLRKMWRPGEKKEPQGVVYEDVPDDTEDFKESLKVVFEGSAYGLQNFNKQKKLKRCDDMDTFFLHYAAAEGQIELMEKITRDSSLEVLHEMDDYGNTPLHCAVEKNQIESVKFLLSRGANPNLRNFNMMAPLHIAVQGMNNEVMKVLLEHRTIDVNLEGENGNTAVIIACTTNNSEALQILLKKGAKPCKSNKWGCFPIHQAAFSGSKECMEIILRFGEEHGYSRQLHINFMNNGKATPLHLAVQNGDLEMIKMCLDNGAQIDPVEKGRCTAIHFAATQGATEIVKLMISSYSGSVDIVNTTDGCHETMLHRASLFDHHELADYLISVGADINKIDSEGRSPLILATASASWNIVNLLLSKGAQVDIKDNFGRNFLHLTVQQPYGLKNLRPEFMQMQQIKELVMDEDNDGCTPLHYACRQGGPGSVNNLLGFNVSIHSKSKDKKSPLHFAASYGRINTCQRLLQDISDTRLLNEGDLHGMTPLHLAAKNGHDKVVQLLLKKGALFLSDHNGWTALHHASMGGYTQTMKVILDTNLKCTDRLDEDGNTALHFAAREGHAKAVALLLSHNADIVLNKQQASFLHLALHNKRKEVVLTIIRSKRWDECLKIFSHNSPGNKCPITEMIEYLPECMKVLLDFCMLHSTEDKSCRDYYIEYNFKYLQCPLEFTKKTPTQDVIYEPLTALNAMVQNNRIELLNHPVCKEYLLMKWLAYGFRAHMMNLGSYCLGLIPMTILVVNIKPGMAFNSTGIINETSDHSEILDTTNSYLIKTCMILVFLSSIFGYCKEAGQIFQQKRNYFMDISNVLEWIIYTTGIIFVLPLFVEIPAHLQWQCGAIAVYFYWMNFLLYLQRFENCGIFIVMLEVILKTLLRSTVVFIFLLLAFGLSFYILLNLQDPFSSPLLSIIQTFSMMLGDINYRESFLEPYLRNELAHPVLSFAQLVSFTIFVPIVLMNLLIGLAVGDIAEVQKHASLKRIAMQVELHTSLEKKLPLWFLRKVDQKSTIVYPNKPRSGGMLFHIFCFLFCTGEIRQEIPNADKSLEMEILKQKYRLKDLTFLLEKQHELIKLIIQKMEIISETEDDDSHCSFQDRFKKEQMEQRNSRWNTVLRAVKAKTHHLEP
# assay-explanation: Alternative TRPA1 Ca2+ fluorometry assay (hTRPA1/TREx-HEK293 cells, Fluo-4, FDSS 6000)
# Format: cell-based
# Parameters: expressed in transfected cells
# conditions: Fluo-4-AM, agonist 6,11-dihydro-5H-dibenzo[b,e]azepine-10-carboxylic acid methyl ester 25 nM, procedure used for Examples 184, 190 to 192, 194 to 316
Each entry below lists one item and its recorded IC50 value.

Would you please look over these solved cases?
compound | observed-result
COc1ccc(S(=O)(=O)N2CCC[C@H]2C(=O)NCc2cc(-c3ccc(C(F)(F)F)cc3)nc(N3CCN(c4ccccc4F)CC3)n2)cc1 | > 10 µM
Cc1ccc(F)cc1S(=O)(=O)N1CCC[C@H]1C(=O)NCc1cc(-c2ccc(C(F)(F)F)cc2)nc(N2CCN(c3ccccc3F)CC2)n1 | > 10 µM
CN(C)c1cccc(-c2cc(CNC(=O)[C@@H]3CCCN3S(=O)(=O)c3ccc(F)cc3)nc(N3CCN(c4ccccc4F)CC3)n2)c1 | > 10 µM
O=C(NCc1cc(-c2ccc(C(F)(F)F)cc2)nc(N2CCN(Cc3ccc4c(c3)OCO4)CC2)n1)[C@@H]1CCCN1S(=O)(=O)c1ccc(F)cc1 | 0.355 µM
NC(=O)C1CCCN(c2nc(CNC(=O)[C@@H]3CCCN3S(=O)(=O)c3ccc(F)cc3)cc(-c3ccc(C(F)(F)F)cc3)n2)C1 (stereo partly drawn) | 4.68 µM

Attention now shifts to the item below.
# IC50 lookup, item "Cc1ccc(C)c(S(=O)(=O)N2CCC[C@H]2C(=O)NCc2cc(-c3ccc(C(F)(F)F)cc3)nc(N3CCN(c4ccccc4F)CC3)n2)c1" > 10 µM

====

# experimental-target: Human TRPA1 (Homo sapiens, UniProt O75762)
# assay-explanation: Assay 1: In vitro cellular testing of TRPA1 modulation (CHO-TREx, Fluo-3 calcium fluorescence, AITC agonist)
# Format: cell-based
# Set-up: expressed in transfected cells; host or cells: CHO-TREx cells (Invitrogen), vector pcDNA4/TO
# conditions: CHO-TREx cells expressing human TRPA1; Fluo-3 fluorescence (FLIPR/Tetra); agonist 15 μM allyl isothiocyanate (AITC); 30 minute antagonist incubation
pIC50: −log10 of the molar value.
reported-property: pIC50

Would you please look over these solved cases?
mol-smiles | reported-property | observed-result
O=C(NCc1cccc(-c2cnc3ccccc3c2)c1)[C@@H]1CCCN1S(=O)(=O)c1ccc(F)cc1 | pIC50 | 5.99
O=C(NCc1cc(-c2ccc(C(F)(F)F)cc2)nc(N2CCCCC2)c1)[C@@H]1CCCN1S(=O)(=O)c1ccc(F)cc1 | pIC50 | 7.54

(1) Cc1ccccc1S(=O)(=O)N1CCC[C@H]1C(=O)NCc1cc(-c2ccc(C(F)(F)F)cc2)ncn1
(2) COc1nc(CNC(=O)[C@@H]2CCCN2S(=O)(=O)c2ccc(Cl)s2)cc(-c2ccc(C(F)(F)F)cc2)n1
Between item 1 and item 2 , which reported pIC50 is smaller? Output the label that corresponds to your choice. 1
(1: 5.99, 2: 7.85)

====

# experimental-target: Human TRPA1 (Homo sapiens)
# assay-explanation: Assay 1: In vitro cellular testing of TRPA1 modulation (CHO-TREx, Fluo-3 calcium fluorescence, AITC agonist)
# Type: cell-based
# Parameters: expressed in transfected cells; host or cells: CHO-TREx cells (Invitrogen), vector pcDNA4/TO
# conditions: CHO-TREx cells expressing human TRPA1; Fluo-3 fluorescence (FLIPR/Tetra); agonist 15 μM allyl isothiocyanate (AITC); 30 minute antagonist incubation
# Procedure: Assay 1: In Vitro Cellular Testing of TRPA1 Modulation Human TRPA1 (NCBI accession number NM_007332.1) was cloned into pcDNA4/TO. […] Following a further 30 minute incubation, cells were assayed using a Fluorometric Imaging Plate Reader (FLIPR™) or a Tetra (both manufactured by Molecular Devices, CA) to simultaneously monitor Fluo-3 fluorescence in all wells (λexcitation=488 nm, λemission=540 nm). […]
pIC50: −log10 of the molar value.
reported-property: pIC50

Would you please look over these solved cases?
compound | pIC50
O=C(NCc1cc(-c2ccc(OC(F)(F)F)cc2)ccn1)[C@@H]1CC(F)(F)CN1S(=O)(=O)c1ccc(F)cc1 [Example 141] | 7.14
O=C(NCc1ccnc(-c2ccc(C(F)(F)F)cc2)c1)[C@@H]1CC(F)(F)CN1S(=O)(=O)c1ccc(F)cc1 [Example 125] | 7.20

(I) CC(C)(C)OC(=O)N[C@@H]1CCN(c2nc(CNC(=O)[C@@H]3CCCN3S(=O)(=O)c3ccc(Cl)s3)cc(-c3ccc(C(F)(F)F)cc3)n2)C1 [Example 35]
(II) CN(C)c1ccc(-c2cccc(CNC(=O)[C@@H]3CCCN3S(=O)(=O)c3ccc(F)cc3)c2)cn1 [Example 104]
(III) O=C(NCc1cc(-c2ccc(C(F)(F)F)cc2)nc(N2CCN(Cc3cccnc3)CC2)c1)[C@@H]1CC(F)(F)CN1S(=O)(=O)c1ccc(F)cc1 [Example 363]
Ascending sort, pIC50. State the ranking by listing the labels in the requested order. III, II, I
(III: 5.31, II: 6.34, I: 7.08)

====

# experimental-target: Human TRPA1 (Homo sapiens)
# assay-explanation: Assay 1: In vitro cellular testing of TRPA1 modulation (CHO-TREx, Fluo-3 calcium fluorescence, AITC agonist)
# Assay type: cell-based
# Set-up: expressed in transfected cells; host or cells: CHO-TREx cells (Invitrogen), vector pcDNA4/TO
# conditions: CHO-TREx cells expressing human TRPA1; Fluo-3 fluorescence (FLIPR/Tetra); agonist 15 μM allyl isothiocyanate (AITC); 30 minute antagonist incubation
reported-property: IC50 (nM)

Would you please look over these solved cases?
compound | IC50 (nM)
O=C(NCc1ccnc(-c2ccc(C(F)(F)F)cc2)c1)[C@@H]1C=CCN1S(=O)(=O)c1ccc(F)cc1 | 42
CC(Nc1cc(CNC(=O)[C@@H]2CCCN2S(=O)(=O)c2ccc(Cl)s2)cc(-c2ccc(C(F)(F)F)cc2)n1)c1ccncc1 (stereo partly drawn) | 466

(a) CCc1ccccc1CN1CCN(c2nc(CNC(=O)[C@@H]3CCCN3S(=O)(=O)c3ccc(F)cc3)cc(-c3ccc(C(F)(F)F)cc3)n2)CC1
(b) O=C(NCc1cc(-c2ccc(C(F)(F)F)cc2)nc(N2CCN(c3ccccc3F)CC2)c1)[C@@H]1CCCN1S(=O)(=O)c1ccc(Cl)s1
(c) O=C(NCc1cc(-c2ccc(C(F)(F)F)cc2)nc(N2CCN(Cc3ccncc3)CC2)c1)[C@@H]1C=CCN1S(=O)(=O)c1ccc(F)cc1
(d) O=C(NCc1cc(NCc2ccncc2)nc(-c2ccc(C(F)(F)F)cc2)c1)[C@@H]1C=CCN1S(=O)(=O)c1ccc(Cl)s1
Sort the 4 compounds by IC50; largest first, smallest last. State the ranking by listing the labels in the requested order. c, d, b, a

====

# experimental-target: Human TRPA1 (Homo sapiens, UniProt O75762)
# assay-explanation: Assay 1: In vitro cellular testing of TRPA1 modulation (CHO-TREx, Fluo-3 calcium fluorescence, AITC agonist)
# Format: cell-based
# Parameters: expressed in transfected cells; host or cells: CHO-TREx cells (Invitrogen), vector pcDNA4/TO
# conditions: CHO-TREx cells expressing human TRPA1; Fluo-3 fluorescence (FLIPR/Tetra); agonist 15 μM allyl isothiocyanate (AITC); 30 minute antagonist incubation
pIC50: −log10 of the molar value.
reported-property: pIC50

Would you please look over these solved cases?
compound | reported-property | observed-result
CCN1CCN(c2nc(CNC(=O)[C@@H]3CCCN3S(=O)(=O)c3ccc(F)cc3)cc(-c3ccc(C(F)(F)F)cc3)n2)CC1 [Example 15] | pIC50 | 6.38
O=C(NCc1cc(-c2ccc(C(F)(F)F)cc2)nc(OCCN2CCCC2)n1)[C@@H]1CCCN1S(=O)(=O)c1ccc(Cl)s1 [Example 62] | pIC50 | 5.49
C[C@H]1CCCN1c1nc(CNC(=O)[C@@H]2CCCN2S(=O)(=O)c2ccc(F)cc2)cc(-c2ccc(C(F)(F)F)cc2)n1 [Example 26] | pIC50 | 7.89

(P) CC(=O)c1ccc(S(=O)(=O)N2CCC[C@H]2C(=O)NCc2cc(-c3ccc(C(F)(F)F)cc3)ncn2)cc1 [Example 162]
(Q) CC(C)CN1CCN(c2cc(CNC(=O)[C@@H]3CC(F)(F)CN3S(=O)(=O)c3ccc(F)cc3)cc(-c3ccc(C(F)(F)F)cc3)n2)CC1 [Example 386]
(R) O=C(NCc1ccnc(-c2ccc(OC(F)(F)F)cc2)c1)[C@@H]1CCCN1S(=O)(=O)c1ccc(F)cc1 [Example 129]
(S) O=C(NCc1ccnc(-c2ccc(C(F)(F)F)cc2)c1)[C@@H]1CCCN1S(=O)(=O)c1ccc(F)cc1 [Example 123]
Ascending sort, pIC50. State the ranking by listing the labels in the requested order. P, Q, S, R
